System name: Axl extracellular domain (EC-Axl) (UniProt P30530 P30530:26-451)
Sequence (P30530 26-451, one chain of several): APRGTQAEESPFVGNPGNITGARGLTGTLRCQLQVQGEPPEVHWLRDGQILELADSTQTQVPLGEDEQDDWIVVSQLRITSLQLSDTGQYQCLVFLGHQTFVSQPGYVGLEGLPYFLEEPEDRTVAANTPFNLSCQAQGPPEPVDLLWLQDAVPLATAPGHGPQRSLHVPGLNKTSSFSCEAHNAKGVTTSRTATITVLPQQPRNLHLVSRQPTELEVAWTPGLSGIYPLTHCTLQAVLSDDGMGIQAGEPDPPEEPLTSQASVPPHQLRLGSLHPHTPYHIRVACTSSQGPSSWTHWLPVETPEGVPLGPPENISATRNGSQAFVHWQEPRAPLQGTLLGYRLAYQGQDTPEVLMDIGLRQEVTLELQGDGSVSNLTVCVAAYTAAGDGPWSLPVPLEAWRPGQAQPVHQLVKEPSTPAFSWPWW
Assay method text: filter; PBS, 0.01% BSA, 37 C, 15 min; unrelated aptamer background subtracted
Condition summary: tags: soluble extracellular domain, R&D Systems; label: 5'-32P
Value kind: Kd (nM)
Provide only the numeric value, understood in nM.

Please give the documented Kd of AUGAUCAAUCGCCUCAAUUCGACAGGAGGCUCAC (ssRNA, 2'-F on all pyrimidines) [GL21 52-85 (GL21.T)]
13
